- STUDY_TARGET: Heat shock factor protein 1 (Mus musculus, UniProt P38532)
- Sequence (P38532 whole entry): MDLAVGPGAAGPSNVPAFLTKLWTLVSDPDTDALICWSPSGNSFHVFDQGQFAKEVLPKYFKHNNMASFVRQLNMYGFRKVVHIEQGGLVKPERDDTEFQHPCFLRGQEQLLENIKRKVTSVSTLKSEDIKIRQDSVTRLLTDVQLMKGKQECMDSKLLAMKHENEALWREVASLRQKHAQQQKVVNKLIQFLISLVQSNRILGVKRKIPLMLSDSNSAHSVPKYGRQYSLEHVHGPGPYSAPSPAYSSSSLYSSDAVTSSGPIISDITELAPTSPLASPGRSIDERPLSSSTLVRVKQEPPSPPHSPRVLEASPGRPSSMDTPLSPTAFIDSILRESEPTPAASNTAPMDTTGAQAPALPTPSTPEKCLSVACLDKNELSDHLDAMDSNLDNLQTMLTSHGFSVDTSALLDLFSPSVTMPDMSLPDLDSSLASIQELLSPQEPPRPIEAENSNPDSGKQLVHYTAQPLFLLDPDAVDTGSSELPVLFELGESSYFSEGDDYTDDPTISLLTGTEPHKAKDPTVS
- PROCEDURE_DETAILS: HSF1 potentiators in luciferase reporter cells, confirmation, cell-based, NIH3T3, luminescence, dose retest (AID 435004);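 note: stress induced by proteasome inhibitor MG132 added 30 min after compound; luciferase reporter driven by HSF1 response element in NIH3T3 cells; actives raise luminescence as potentiators of the MG132 stress response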
- Type: functional
Calls of active or inactive are those of the source.
Parameter call: string, one of active, inactive

Before answering, review these 6 worked examples.
COMPOUND | LABEL
CCOC(=O)C1=NN(C(=O)c2ccccc2)C(O)(c2ccc(C)cc2)C1 (configuration not stated) | inactive
Oc1c(Br)cc(Br)cc1/C=N/c1cccc2ncccc12 | inactive
Clc1ccc(CO/N=C/c2c(-c3ccccc3)nc3n2CCS3)c(Cl)c1 | inactive
O=C(OCc1csc(-c2ccccc2)n1)c1cccs1 | inactive
COc1cccc(OCc2ccc(Cl)cc2)c1C#N | inactive
O=C1/C(=C\c2ccc(Br)o2)Cc2ccccc21 | active

Attention now shifts to the item below.
Which outcome was assigned to C=CCn1c(=O)c2ccccc2n2c(SCC(=O)Nc3sc(C)c(CC)c3C(=O)OCC)nnc12 in this test?
inactive

----------
- STUDY_TARGET: Trypsin (Sus scrofa)
- Sequence (P00761 whole entry): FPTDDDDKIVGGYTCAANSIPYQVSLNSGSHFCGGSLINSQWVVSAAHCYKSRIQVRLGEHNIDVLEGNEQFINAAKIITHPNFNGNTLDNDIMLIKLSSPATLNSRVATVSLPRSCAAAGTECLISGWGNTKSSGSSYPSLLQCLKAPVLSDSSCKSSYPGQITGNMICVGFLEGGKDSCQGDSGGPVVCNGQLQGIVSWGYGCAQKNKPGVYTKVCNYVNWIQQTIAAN
- PROCEDURE_DETAILS: porcine trypsin inhibitors, dose response, selectivity assay for Rce1 protease inhibitor project, biochemical, quenched peptide fluorescence, cherry-pick (AID 488789)
Active and inactive are the calls of the source.
Parameter call: string, one of true = active, false = inactive

COMPOUND | LABEL
Cc1cccc2[nH]c3c(N4CCC5(CC4)OCCO5)ncnc3c12 | true
Cc1nn(-c2ccccc2)c2nc(N)c(C(N)=O)cc12 | true
CCS(=O)(=O)Nc1c(C(=O)O)[nH]c2ccccc12 | false
COc1ccc(C2=NN(C(=O)CCC(=O)O)C(c3cccs3)C2)cc1 (stereo not given) | true

Attention now shifts to the item below.
Which outcome was assigned to COc1ccc(C)c2sc(NC(=O)C3=COCCO3)nc12 in this test?
true

----------
- STUDY_TARGET: DNA dC->dU-editing enzyme APOBEC-3G (Homo sapiens, UniProt Q9HC16)
- Sequence (Q9HC16 whole entry): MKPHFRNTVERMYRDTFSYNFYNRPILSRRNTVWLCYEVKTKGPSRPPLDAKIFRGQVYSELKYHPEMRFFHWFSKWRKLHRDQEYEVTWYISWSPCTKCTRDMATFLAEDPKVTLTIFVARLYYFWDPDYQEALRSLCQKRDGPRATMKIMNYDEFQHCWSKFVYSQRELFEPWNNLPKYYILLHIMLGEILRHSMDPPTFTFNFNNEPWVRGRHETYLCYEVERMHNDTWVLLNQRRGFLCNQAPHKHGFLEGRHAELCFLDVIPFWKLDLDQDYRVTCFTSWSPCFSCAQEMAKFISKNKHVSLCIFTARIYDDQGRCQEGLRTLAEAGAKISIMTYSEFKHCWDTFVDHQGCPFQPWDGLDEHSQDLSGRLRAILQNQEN
- PROCEDURE_DETAILS: Dose Response confirmation of small molecule APOBEC3G DNA Deaminase Inhibitors via a fluorescence-based single-stranded DNA deaminase assay. [Related pubchem assays (depositor defined):AID493012, AID493028]
- Format: functional
Calls of active or inactive are those of the source.
REPORTED_PROPERTY: IC50

CHEMICAL_SMILES | IC50
Cc1ccc(-n2c(N)c(C(N)=O)sc2=S)cc1 | 55.1 µM (active)
O=S(=O)(Nc1ccccc1F)c1cccc(NC(=S)NCCN2CCOCC2)c1 | 7.38 µM (active)

Suppose we examine the molecule CCC(C)(C)c1nnc(NC(=O)C2CCN(C(=O)c3ccco3)CC2)s1 ; what IC50 value has been reported?
25.9 µM (active)

Suppose we examine the molecule Sc1cnc2ccccc2n1 ; what IC50 value has been reported?
7.85 µM (active)

----------
- STUDY_TARGET: UniProt:P08684
- Sequence (P08684 whole entry): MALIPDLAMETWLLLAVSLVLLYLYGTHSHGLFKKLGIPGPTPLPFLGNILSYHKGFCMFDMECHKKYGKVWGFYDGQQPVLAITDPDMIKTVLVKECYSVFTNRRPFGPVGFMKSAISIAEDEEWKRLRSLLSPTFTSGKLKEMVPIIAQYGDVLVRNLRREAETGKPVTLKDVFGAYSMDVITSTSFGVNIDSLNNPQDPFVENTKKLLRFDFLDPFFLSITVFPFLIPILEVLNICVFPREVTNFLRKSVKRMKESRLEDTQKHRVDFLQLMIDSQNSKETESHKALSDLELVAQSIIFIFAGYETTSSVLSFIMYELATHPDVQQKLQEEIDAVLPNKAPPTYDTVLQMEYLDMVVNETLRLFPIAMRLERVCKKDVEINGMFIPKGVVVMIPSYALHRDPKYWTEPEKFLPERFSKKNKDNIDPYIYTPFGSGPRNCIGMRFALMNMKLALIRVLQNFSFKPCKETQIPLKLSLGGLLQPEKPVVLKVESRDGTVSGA
REPORTED_PROPERTY: AC50

Study these solved cases before continuing.
MOLECULE | OBS_VALUE
N#Cc1ccccc1-c1ccc2ncnc(NCc3cccnc3)c2c1 | 2 µM (inconclusive)
O=C(Nc1ccccc1)N1CCCC2(CCN(C(=O)c3ccco3)CC2)C1 | 15.8 µM (inconclusive)
O=C(NCCc1ccccc1)C(=O)NN=C1CCCC1 | 31.6 µM (inconclusive)

Write down the reported AC50 of COc1ccc(NC(=O)COC(=O)c2c3c(nc4ccccc24)CCCC3)cc1 , test system: UniProt:P08684.
0.891 µM (inconclusive)

Write down the reported AC50 of COc1ccc(C(=O)N2CCC3(CC2)CCN(c2ccncc2)CC3)cc1 , test system: UniProt:P08684.
15.8 µM (inconclusive)
